Target: ATP-dependent Clp protease proteolytic subunit (Escherichia coli (strain K12), UniProt P0A6G7)
Sequence (P0A6G7 whole entry): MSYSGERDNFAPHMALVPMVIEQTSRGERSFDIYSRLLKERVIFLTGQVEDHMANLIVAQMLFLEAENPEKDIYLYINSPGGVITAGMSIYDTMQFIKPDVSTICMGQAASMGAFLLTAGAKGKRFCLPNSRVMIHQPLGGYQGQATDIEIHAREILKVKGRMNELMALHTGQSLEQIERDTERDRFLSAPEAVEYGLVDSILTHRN
Assay: Activation of N-terminal His-tagged recombinant Escherichia coli ClpP expressed in Escherichia coli SG1146(DE3) assessed as degradation of casein-FITC preincubated for 10 mins followed by casein addition measured for over 100 mins by fluorescence based assay
pEC50: −log10 of the molar value.
endpoint: pEC50

O=C(CP(=O)(c1ccc(C(F)(F)F)cn1)c1ccc(C(F)(F)F)cn1)NCCSc1ccccc1C(F)(F)F : 5.75
CC(C)(C(=O)NCCSc1ccccc1Br)P(=O)(c1ccc(C(F)(F)F)cc1)c1ccc(C(F)(F)F)cc1 : 5.14

I: CC(C)(C(=O)NCCSc1ccccc1C(F)(F)F)P(=O)(c1ccc(C(F)(F)F)cc1)c1ccc(C(F)(F)F)cc1
II: CC(C(=O)NCCSc1ccccc1C(F)(F)F)P(=O)(c1ccc(C(F)(F)F)cn1)c1ccc(C(F)(F)F)cn1 (centres undefined)
Exercise: compare I and II ; which one has the greater pEC50? Lab log: write the label of the selected item as the result.
II

I: CC(C)(C(=O)NCCSc1ccccc1C(F)(F)F)P(=O)(c1ccccn1)c1ccccn1
II: CC(C)(C(=O)NCCSc1ccccc1Cl)P(=O)(c1ccc(C(F)(F)F)cc1)c1ccc(C(F)(F)F)cc1
In terms of reported pEC50, does I or II have the smaller number? Lab log: write the label of the selected item as the result.
II
(II: 5.32, I: 5.64)
